Exercise: for every item that follows, state its recorded PBM binding z-score.
tested on: RARb:RXRa (NR concentration 270 nM, RXRa partner concentration 90 nM); experiment: PBM binding z-score (relative to random genomic background probes); higher = stronger binding; sequences stand for … in GC…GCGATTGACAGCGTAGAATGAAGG
One number for each entry.

These recorded examples may help you get a feel for the data.
{"residueString": "GCTATTAGTTGAAGGGGCAACCGAATGATTCTCG", "PBM binding z-score": 0.759}
{"residueString": "TCTCGGAGGACACGAAAGGTCAGAGCCCGACATC", "PBM binding z-score": 4.29}
{"residueString": "GCTAGTTGGTCAGTAAAAGGTCATACACCGGTCG", "PBM binding z-score": 3.94}
{"residueString": "TCTGGTAGGTCAGTTGGTCAGCTAACGAGCTGCC", "PBM binding z-score": 3.62}
{"residueString": "CGTCCAAGGTCAGAAAGGTCAGTGAATGCCGAGT", "PBM binding z-score": 5.34}

Items follow; give PBM binding z-score for each.
1. CGGCAAAGTTCAACTAAGGTAACGTAAAGCACGC
2. TCTAGTTGGTCACGGATGTCACACACGACGGGTA
3. GCTAGTTGGTCAGTAAAACGTCACACACCGGTCG
4. CAAACTAGGTCAAGGACAGTGAATCTCCGCACGC
5. GCTGCTAGCTCAACTGATGGTCAGCTAAAGCTCG
6. CCTACTGGGCAACGAAAGGTCATTGATTCAGTGA
7. CCTGTTAGGTCAATGGTCAGCTAAAGCAGCTCGC

[5.16, 1.88, 0.305, 4.06, -0.407, 3.96, 4.14]

====

Exercise: for every item that follows, state its recorded PBM binding z-score.
tested on: PPARg:RXRa 30nM:10nM, anti-RXR (NR concentration 30 nM, RXRa partner concentration 10 nM); test: PBM binding z-score (relative to random genomic background probes); higher = stronger binding; sequences stand for … in GC…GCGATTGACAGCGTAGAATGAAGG
Give bare numbers.

These recorded examples may help you get a feel for the data.
{"residueString": "TCAGACAGGTGAAGGTAACTCAAGTACGCAGTCG", "subjectOfTest": "PPARg:RXRa 30nM:10nM, anti-RXR (NR concentration 30 nM, RXRa partner concentration 10 nM)", "PBM binding z-score": 4.18}
{"residueString": "TAGCCTAGGTCATTGGGCCAGGATAGTACGCATC", "subjectOfTest": "PPARg:RXRa 30nM:10nM, anti-RXR (NR concentration 30 nM, RXRa partner concentration 10 nM)", "PBM binding z-score": 0.83}
{"residueString": "CCGACTTGGGCATAAGGTTACCATAAGCCAGCCC", "subjectOfTest": "PPARg:RXRa 30nM:10nM, anti-RXR (NR concentration 30 nM, RXRa partner concentration 10 nM)", "PBM binding z-score": -0.372}
{"residueString": "ACTTACGGGTAAACGAGGTTATAGCACGCGTATA", "subjectOfTest": "PPARg:RXRa 30nM:10nM, anti-RXR (NR concentration 30 nM, RXRa partner concentration 10 nM)", "PBM binding z-score": 0.277}
{"residueString": "TCTTGTAGATCAAGCATGTTAAGAAAGCCTGAGT", "subjectOfTest": "PPARg:RXRa 30nM:10nM, anti-RXR (NR concentration 30 nM, RXRa partner concentration 10 nM)", "PBM binding z-score": 2.56}
{"residueString": "GCAGACAGGTGAAACGCAGGTCACTCAGGGTGGC", "subjectOfTest": "PPARg:RXRa 30nM:10nM, anti-RXR (NR concentration 30 nM, RXRa partner concentration 10 nM)", "PBM binding z-score": -0.357}
{"residueString": "ACTATTAGTTGAGGCGAGGGCAACCGATAGGTTG", "subjectOfTest": "PPARg:RXRa 30nM:10nM, anti-RXR (NR concentration 30 nM, RXRa partner concentration 10 nM)", "PBM binding z-score": 0.138}
{"residueString": "TGTCAAAGTTCAAAGCTAACGTAAGTATCCACAC", "subjectOfTest": "PPARg:RXRa 30nM:10nM, anti-RXR (NR concentration 30 nM, RXRa partner concentration 10 nM)", "PBM binding z-score": 4.27}

Items follow; give PBM binding z-score for each.
1. TCAGACAGGTGAAGGTGACTCAGGTACGCAGTCG
2. GCAGACAGGTGAAACGCAGGTAACTCACGGTGGC
3. AATACAGGGTAATCGTAGGCCAGAGTACGCACAG
4. TCGTGTAGGTTAGGGGCATTCAGAATGGCGTCGA

[3.51, -0.533, 0.499, 2.01]

Items follow; give PBM binding z-score for each.
1. TCATATAGGTAAATGTTAGGTGAAAGTCCGATCT
2. CCTCGGAGGACAGAAGGTCACAGCTGTCCGCTTT
3. GGGACGAGGGCAAAGTTGATAGCATCTGTCGACG
4. ATCTCTAGGTAAGACTCAGTACAGTGAAGAACGC
5. ACAGACATGTGATGAAGGTAACTCAGGCTATCAT
6. AGTCAAAGTTCACTATGTAACGTAAGATTCAGCT
7. CGAACTGGGTCATCCAGGACAGTGAATACATTGA

4.07
-0.00709
5.3
0.341
-0.0978
2.49
3.5

====

test system: RXRa DBDmut IVT, anti-RXR (DBD mutation: RXRa K156A/R161A, NR concentration 90 nM); assay: PBM binding z-score (relative to random genomic background probes); higher = stronger binding; sequences stand for … in GC…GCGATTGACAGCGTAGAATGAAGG
Mark not satisfied for PBM binding z-score values under 0.1, and satisfied for everything at or above.

{"residueString": "ATATGTAGGTCACATCCGGGTCATTCAGGCTATG", "subjectOfTest": "RXRa DBDmut IVT, anti-RXR (DBD mutation: RXRa K156A/R161A, NR concentration 90 nM)", "answerLabel": "satisfied"}
{"residueString": "GCAGACAGGTGAAACGCATGTAACTCAGGGTGGC", "subjectOfTest": "RXRa DBDmut IVT, anti-RXR (DBD mutation: RXRa K156A/R161A, NR concentration 90 nM)", "answerLabel": "not satisfied"}
{"residueString": "GCGACTGGGGCATCAGCAGGTTACCACAACTTAA", "subjectOfTest": "RXRa DBDmut IVT, anti-RXR (DBD mutation: RXRa K156A/R161A, NR concentration 90 nM)", "answerLabel": "not satisfied"}
{"residueString": "CGAACTAGGTCAAGGACAGTGATTCTCCGCACGC", "subjectOfTest": "RXRa DBDmut IVT, anti-RXR (DBD mutation: RXRa K156A/R161A, NR concentration 90 nM)", "answerLabel": "satisfied"}
{"residueString": "TAGGCTAGGTCATGGGCCAGTATACCACGCGAAC", "subjectOfTest": "RXRa DBDmut IVT, anti-RXR (DBD mutation: RXRa K156A/R161A, NR concentration 90 nM)", "answerLabel": "satisfied"}

Item ATCTCTAGGTAAAGATAGTCCAGTGAATGCAAAT with PBM binding z-score of 0.1 or above? not satisfied

Item ATCTCTAGGTAACAAGTTCTGTGAAAGAGAGGAC with PBM binding z-score of 0.1 or above? satisfied

Item TTACGAAGGTGAAGGTCGTTGATCCCTCTGTAGA with PBM binding z-score of 0.1 or above? satisfied

Item AGGCAAAGTTCACTAGGTAACGTAAGATTCAGCT with PBM binding z-score of 0.1 or above? satisfied

Item GCATATCGGTAATACAAGGTGAAAGTCCGATTGT with PBM binding z-score of 0.1 or above? satisfied

Item TCTCGGAGGACAGGAAGGTCAGAGCTTTCCAGAG with PBM binding z-score of 0.1 or above? satisfied

Item GCTAGTAGGCCATTTGGGTCACTCAATGACGGGC with PBM binding z-score of 0.1 or above? not satisfied

====

system: THRa homodimer (NR concentration 90 nM); test: PBM binding z-score (relative to random genomic background probes); higher = stronger binding; sequences stand for … in GC…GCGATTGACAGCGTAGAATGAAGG
Mark no (0) for PBM binding z-score values under 0.8, and yes (1) for everything at or above.

// known answers, use as guide
{"residueString": "CTACCAAGGTGAACAAGGTCGTTCATTACTATTC", "answerLabel": "yes (1)"}
{"residueString": "GCTAGCAGGCCAATTGGGTCACTCAATGACGGGC", "answerLabel": "no (0)"}
{"residueString": "ATCTCTACGTAAAGATAGTTCAGTGAATGCAAAT", "answerLabel": "no (0)"}
{"residueString": "TCATATAGGTAAACAGGTGAAAGACCGTAAGTTA", "answerLabel": "no (0)"}
{"residueString": "TCATATAGGTAAATGCTAGGTGAACGTCCGATCT", "answerLabel": "yes (1)"}
{"residueString": "AACGAAAGGTCGAGGTGAGTATAGAGAAAGGGAA", "answerLabel": "no (0)"}
{"residueString": "CCTACTGGGCCATTCCGAGGTCATTGATCATATG", "answerLabel": "yes (1)"}
{"residueString": "TAGTCTAGGTCATGCGGGCCAGTATAGTGTCGGC", "answerLabel": "yes (1)"}

Item GATACAGGCTCAGCTAGAGGCCAGAGTATGGAAA with PBM binding z-score of 0.8 or above? no (0)

Item ATCGAAAGGTCGTGGTGAGTATAGAGAAAGGGAA with PBM binding z-score of 0.8 or above? no (0)

Item CCTTCTGGGCCACGAAAGGTCATTGATTCAGTGA with PBM binding z-score of 0.8 or above? yes (1)

Item TCTTGGAGATCAGCAGGTTAAGAAAGCTGGCCAA with PBM binding z-score of 0.8 or above? no (0)

Item TTACCAAGGTGAGCTGAGGTCGCTGATCCAACTC with PBM binding z-score of 0.8 or above? yes (1)

Item CCTAGCAGGCTAATCTGGGTCACTCAAGGCTTGA with PBM binding z-score of 0.8 or above? no (0)

Item CAAACTAGGTCACCAAAGGTCAAAGTCGAATGAC with PBM binding z-score of 0.8 or above? yes (1)

Item CCTATTAGGTGACCATAAGGGCAACCGAAGCTCG with PBM binding z-score of 0.8 or above? yes (1)

Item CAAACTAGGTCAAAGCTCAAAGTCGAGCCAACCA with PBM binding z-score of 0.8 or above? no (0)

Item CCTTACGGGACACGAGGTTATAGCACGACGAGCG with PBM binding z-score of 0.8 or above? yes (1)

Item ACAGACAGGTGATGAAGGTGACTCAGGCTATCAT with PBM binding z-score of 0.8 or above? no (0)

Item ATCTCTAGGTAAAGATGGTTCAGTGAATGCAAAT with PBM binding z-score of 0.8 or above? no (0)

Item TCTGTTAGGTCAGTTGGTCAGCTAACGAGCTGCC with PBM binding z-score of 0.8 or above? yes (1)

Item CCTCACGGGTCACGAGGTTATAGCACGACGAGCG with PBM binding z-score of 0.8 or above? yes (1)

Item CTACCAAGATGAACAAGGTCGTTGATTACTATTC with PBM binding z-score of 0.8 or above? yes (1)

Item ACACCAAGGTGATCGTGAGGTCGTTGATACTAAC with PBM binding z-score of 0.8 or above? yes (1)

Item ACATGTAGGTTACATCCGGGTCATTCAGGCTATG with PBM binding z-score of 0.8 or above? yes (1)

Item GATACAGGGTCAAGGCTAGAGTACGCGTATTGAT with PBM binding z-score of 0.8 or above? yes (1)
